# TEST_METHOD_NOTES: E. coli acrAB mutant growth effects, primary screen, E. coli filamentation inducers, strain DRC39, OD650, 48 h (AID 1179);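 also: screen aims at cell division blockers that make cells filament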
# SETUP_CONDITIONS: E. coli DRC39 delta-acrAB growth, higher = more signal, called active from +8 up or from −8 down
Give Fulfilled when the value for z-score is at least 0.4. Give Not fulfilled when it is less.

• O=c1cccc(CCc2ccccc2)o1 = Not fulfilled
• O=C1[C@]2(CO)C=C(Br)[C@@H](C[C@@H]2c2ccccc2)[C@@]12CO2 = Fulfilled
• CCOC(=O)C[C@H]1[C@H](OC(=O)Cc2ccc3c(c2)OCO3)[C@@H](NC(=O)C2CCCCC2)c2cc(OCCCO)ccc2N1C(=O)Cc1ccc(OC)cc1 = Fulfilled
• CC(C)NC(=O)[C@@H]1c2ccccc2C(=O)N(Cc2ccccc2Cl)[C@H]1c1ccc(CO)cc1 = Fulfilled
• COc1ccc(CCN2C(=O)[C@@]3(Cc4ccccc42)c2ccccc2C(=O)N(Cc2ccccc2Cl)[C@H]3c2ccc(CO)cc2)cc1 = Not fulfilled
• O=C(CS)NCCCCCCNC(=O)[C@H]1C[C@H]2C(=O)N3CCC[C@H]3C(=O)N2[C@H]1c1cccc(OCCO)c1 = Not fulfilled
• Cc1cc(C)cc(N2C(=O)CS(=O)(=O)C2c2cccc([N+](=O)[O-])c2)c1 (stereo not given) = Fulfilled
• COCCOC(=O)N1C(=O)[C@@]2(c3ccccc31)[C@H](C(=O)NC[C@H](O)c1ccccc1)[C@H]1C(=O)O[C@H](c3ccccc3)[C@H](c3ccccc3)N1[C@@H]2c1ccc(OCCO)cc1 = Not fulfilled
• COC(=O)[C@@]1(Cc2ccccc2)[C@H]2c3cc(C(=O)N(C)C)n(Cc4c(-c5ccccc5)noc4C)c3C[C@H]2CN1C(=O)c1ccccc1 = Not fulfilled
• O=C1N(CCS(=O)(=O)c2ccccc2)Cc2ccccc2C[C@]12N=C(c1ccc(OCCCO)cc1)O[C@@H]2c1ccccc1 = Fulfilled
• CC(C)C(=C=CC[C@H](O)c1cccc(OCCO)c1)C[C@H](O)COCc1ccccc1 = Not fulfilled
• COCCOC(=O)N1C(=O)[C@@]2(c3cc(C#CCNC(N)=O)ccc31)[C@H](C(=O)N1CCN(c3ncccn3)CC1)[C@H]1C(=O)O[C@H](c3ccccc3)[C@H](c3ccccc3)N1[C@@H]2c1ccccc1OCCO = Not fulfilled
• CC(C)Cc1ccc(CN2CC[C@@H](NS(=O)(=O)c3ccccc3)C2)cc1 = Not fulfilled
• [N-]=[N+]=NCc1ccccc1C[C@@]1(C(=O)N2CCOCC2)N=C(c2ccc(OCCCO)cc2)O[C@@H]1c1ccccc1CN=[N+]=[N-] = Fulfilled

* * *

# TEST_METHOD_NOTES: osmotic lysis modulators in infected erythrocytes, primary screen, PSAC antagonist project, cell-based, P. falciparum Indochina, OD700, 3 h (AID 1156)
# SETUP_CONDITIONS: higher = more signal, called active from +8 up or from −8 down
In this scheme, each record receives a class according to its z-score; the ranges are range A = under -0.08, range B = from -0.08 up to 0.8, range C = 0.8 and over

• C[C@]1(C(=O)NCc2ccccc2)c2ccccc2C(=O)N(Cc2ccc(OC(F)(F)F)cc2)[C@H]1c1ccc(CO)cc1 = range A
• COc1ccc(CCNC(=O)[C@@]2(c3ccc([N+](=O)[O-])cc3)CC(=O)N(CC34CC5CC(CC(C5)C3)C4)[C@@H]2c2ccc(CO)cc2)cc1 = range C
• C=CCOC(=O)[C@@H]1[C@H]2C(=O)O[C@H](c3ccccc3)[C@H](c3ccccc3)N2[C@H](c2ccc(OCCOC(=O)[C@@H]3C[C@@H]4C(=O)NCC(=O)N4[C@@H]3c3cccc(OCCO)c3)cc2)[C@@]12C(=O)Nc1ccc(I)cc12 = range C
• O=C1OCCC/C=C\[C@H]2OC34C=CCN(Cn5nnc6ccccc65)C(=O)[C@H]3N(CCCCCO)C(=O)[C@@H]4C12 (some centres undefined) = range A
• C=CC[C@]1(C(=O)N2CCOCC2)N=C(c2ccc(OCCCO)cc2)O[C@H]1c1ccccc1 = range B
• CO[C@H]1O[C@H](CO)[C@@H](OC(=O)Nc2ccc3c(c2)OCO3)[C@H](OC(=O)Nc2ccccc2)[C@H]1OC(=O)Nc1ccccc1 = range B
• O=C1c2ccccc2[C@@]2(Cc3ccccc3N(Cc3ccccc3)C2=O)[C@H](c2ccc(CO)cc2)N1C1CCCCC1 = range B
• COc1ccc(C#Cc2ccc3c(c2)[C@]2(C(=O)N3)[C@H](c3ccc(O)cc3)N3[C@H](c4ccccc4)[C@H](c4ccccc4)OC(=O)[C@H]3[C@@H]2C(=O)N2CCCCCCC2)cc1 = range A
• N#Cc1ccc(NN2C(C(O)C3CCCCC3)C=CC3C(=O)N(c4ccccc4)C(=O)C32)cc1 (centres undefined) = range C
• O=C(CS)NCCCCCCNC(=O)[C@@H]1C[C@@H]2C(=O)N3CCC[C@H]3C(=O)N2[C@@H]1c1ccc(O)cc1 = range C
• CCOC(=O)[C@H]1C/C=C/C[C@H](C(=O)OCC)C(=O)O[C@H]2[C@@H](OC)O[C@H](CO)[C@@H](OC(=O)Nc3ccc4c(c3)OCO4)[C@@H]2OC1=O = range A
• N#Cc1ccc(NN2C(C(O)c3ccc([N+](=O)[O-])cc3)C=CC3C(=O)N(c4ccccc4)C(=O)C32)cc1 (centres undefined) = range B
• COC(=O)[C@@]1(Cc2ccccc2)[C@H]2c3cc(C(=O)N(C)C)n(Cc4cc(C)n(C)n4)c3C[C@H]2CN1C(=O)c1ccccc1 = range B

* * *

Reported z-score values are given for each entry in this list.
# TEST_METHOD_NOTES: modulators of S6 phosphorylation in cells, primary screen, cell-based, A549, cytoblot, luminescence, serum-stimulated (AID 1158);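 also: serum-stimulated A549 lung adenocarcinoma cells; signal is phosphorylated S6 detected by cytoblot immunostaining with HRP secondary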
# SETUP_CONDITIONS: A549 phospho-S6 cytoblot, 5 h, higher = more signal
MEASURE_NAME: z-score

- COc1ccc(C(O)C2C=CC3C(=O)N(c4ccccc4)C(=O)C3N2Nc2ccc([N+](=O)[O-])cc2)cc1OCc1ccccc1 (stereo unspecified): -0.881
- CC(C)N1CC=CC23O[C@@H]4C=CCOC(=O)[C@@H]4[C@H]2C(=O)N(CCO)[C@@H]3C1=O (stereo partly specified): 0.121
- O=C(O)[C@H]1C[C@H]2C(=O)NCC(=O)N2[C@H]1c1ccc(O)cc1: 0.586
- O=C(CS)NCCCCCCNC(=O)[C@H]1C[C@H]2C(=O)N3CCC[C@H]3C(=O)N2[C@H]1c1cccc(OCCO)c1: 0.598
- Cc1ccc([C@H]2[C@H](C(=O)O)[C@H](Sc3ccccc3)[C@@H](C(C)C)N2S(=O)(=O)c2ccc(C)cc2)cc1: -0.137
- COc1ccc(C#Cc2ccc3c(c2)[C@]2(C(=O)N3)[C@H](C(=O)NC[C@H](O)c3ccccc3)[C@H]3C(=O)O[C@H](c4ccccc4)[C@H](c4ccccc4)N3[C@@H]2c2ccc(OCCO)cc2)cc1: -0.321
- C=C(C(=O)CC[C@H](OC(C)=O)c1ccc(OCCO)cc1)C(C)C: 0.823
- CC(C)N1C(=O)[C@@]2(c3ccc([N+](=O)[O-])cc3)CC(=O)N(CC34CC5CC(CC(C5)C3)C4)[C@@H]2c2ccc(CO)cc21: -0.561
- COc1cc2c(cc1O)C(C)N(Cc1cccc(OC(F)(F)F)c1)CC2 (stereo unspecified): -0.0952
- O=C1C2C=CC(C(O)c3cccs3)N(Nc3ccccc3F)C2C(=O)N1c1ccccc1 (stereo unspecified): 0.224
- CN(C)CCCCCCNC(=O)[C@H]1C[C@H]2C(=O)N[C@@H](CCCCN)C(=O)N2[C@H]1c1ccc(O)cc1: 0.169
- O=C1O[C@@H](c2ccccc2)[C@@H](c2ccccc2)N2[C@@H](c3ccc(O)cc3)[C@]3(C(=O)Nc4ccc(C#CC5(O)CCCCCC5)cc43)[C@@H](C(=O)N3CCCCCCC3)[C@H]12: 0.181
- COC(=O)C[C@@H]1C[C@H](C)[C@]2(O1)C(=O)N(Cc1ccccc1)c1ccc(NC(C)=O)cc12: 0.525
- O=C1[C@]2(CO)C=C(Br)[C@@H](C[C@@H]2c2ccccc2)[C@@]12CO2: -0.364
- COc1c(C)cc(-c2cc3c(c(-c4ccc(Oc5ccccc5)cc4)n2)[Si](C(C)C)(C(C)C)OC3)cc1C: -0.817
- [N-]=[N+]=NCc1ccccc1[C@H]1OC(c2ccc(OCCCO)cc2)=N[C@@]1(CCS(=O)(=O)c1ccccc1)C(=O)N1CCOCC1: -0.362

* * *

# TEST_METHOD_NOTES: mitochondrial membrane potential change in A549 cells, profiling panel, cell-based, JC-1 fluorescence, basal, 24 h, 100 nL (AID 1138);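 also: A549 lung adenocarcinoma cells under basal conditions with no added stimulus; test concentration not given here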
# SETUP_CONDITIONS: higher = more signal
Grouping key: z-score. Bins: class 0 (below -0.3), class 1 (-0.3 to below 1), class 2 (1 or more)

- CCCCCN1CC=CC23O[C@@H]4/C=C\CCCOC(=O)C4[C@H]2C(=O)N(CCCCCCO)[C@@H]3C1=O (some centres not stated): class 2
- CC=CC(O)C1C=CC2C(=O)N(c3ccccc3)C(=O)C2N1Nc1ccc(C(C)C)cc1 (configuration not stated): class 0
- Cc1ccccc1C(O)C1C=CC2C(=O)N(C)C(=O)C2N1Nc1ccccc1 (configuration not stated): class 1
- CS(=O)(=O)CCOC(=O)C1=CC(CCCO)=CC(c2cccs2)N(Cc2cc3c(cc2Br)OCO3)C=C1C(=O)OCCS(C)(=O)=O (configuration not stated): class 2
- CC(C)NC(=O)[C@@H]1c2ccccc2C(=O)N(Cc2ccccc2)[C@H]1c1ccc(CO)cc1: class 1
- COc1ccc(CCNC(=O)[C@@]2(Sc3ccc(C)cc3)CC(=O)N(Cc3ccccc3Cl)[C@@H]2c2ccc(CO)cc2I)cc1: class 2
- CCCCCCCCCCC(O)C1C=CC2C(=O)N(Cc3ccccc3)C(=O)C2N1n1cnnc1 (configuration not stated): class 0
- O=C1C2C=CC(C(O)c3ccc(B(O)O)cc3)N(Nc3ccccc3)C2C(=O)N1c1ccccc1 (configuration not stated): class 0
- C=CC[C@]1(C(=O)N2CCOCC2)N=C(c2ccc(OCCCO)cc2)O[C@H]1c1ccccc1: class 1
- O=C(O)[C@H]1C[C@H]2C(=O)NCC(=O)N2[C@H]1c1ccc(O)cc1: class 2
- COc1ccc(C#Cc2ccc3c(c2)[C@]2(C(=O)N3)[C@H](c3ccc(O)cc3)N3[C@H](c4ccccc4)[C@H](c4ccccc4)OC(=O)[C@H]3[C@@H]2C(=O)N2CCCCCCC2)cc1: class 1
- CC(C)CNC(=O)[C@@]1(c2ccc([N+](=O)[O-])cc2)CC(=O)N(CC23CC4CC(CC(C4)C2)C3)[C@@H]1c1ccc(CO)cc1: class 2
- CC(C)c1ccc(NN2C(C(O)c3c(F)cccc3Cl)C=CC3C(=O)N(c4ccccc4)C(=O)C32)cc1 (configuration not stated): class 0
- [N-]=[N+]=NCc1ccccc1C[C@]1(C(=O)NCC(O)CO)N=C(c2ccc(OCCCO)cc2)O[C@H]1c1ccccc1N=[N+]=[N-] (some centres not stated): class 2
- Cc1c(NC(=O)CC#N)c(=O)n(-c2ccccc2)n1C: class 1
- CCOC(=O)[C@H]1C[C@H]2O[C@@]23C[C@H]1C(=O)N1CCCC1[C@@H]3O[Si](C)(C)C(C)(C)C (some centres not stated): class 0
- COC(=O)c1ccc(OC)c(/C=C\CC(OC(C)=O)c2ccccc2)c1 (configuration not stated): class 0
